# Tested on: Furin (108-574-Tev-Flag-His) enzyme (Homo sapiens)
# Construct: Furin (108-574-Tev-Flag-His) enzyme was expressed and purified from CHO cells; TEV cleavage site (C); FLAG (C); His (C); made in house; host or cells: CHO cells
# Sequence (P09958 108-574): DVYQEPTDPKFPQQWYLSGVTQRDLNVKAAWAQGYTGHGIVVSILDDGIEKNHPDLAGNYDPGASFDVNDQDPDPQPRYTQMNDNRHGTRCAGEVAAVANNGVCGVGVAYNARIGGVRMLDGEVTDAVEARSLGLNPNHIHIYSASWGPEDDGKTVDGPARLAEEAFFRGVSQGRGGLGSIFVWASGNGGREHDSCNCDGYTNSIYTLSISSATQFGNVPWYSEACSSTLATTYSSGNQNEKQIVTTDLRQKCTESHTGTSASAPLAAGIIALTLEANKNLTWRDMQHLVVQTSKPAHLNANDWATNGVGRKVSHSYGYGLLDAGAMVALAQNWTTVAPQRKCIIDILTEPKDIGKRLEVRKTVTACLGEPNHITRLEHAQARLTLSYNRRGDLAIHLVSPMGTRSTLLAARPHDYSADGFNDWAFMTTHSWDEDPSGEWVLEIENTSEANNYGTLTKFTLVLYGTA
# Experimental details: Furin enzyme assay
# Assay type: biochemical
Where a name gives a salt, the structure may show the parent alone.
Result type: furin enzyme pIC50

Compound	Reported measurement
CC(C)(O)CN1CCN(c2cnc(Oc3cc(CN4CCC(CC(=O)O)CC4)cc(-c4cc(Cl)cc(Cl)c4)n3)cn2)CC1 [Example 343]	8.7
O=C(O)CC1CCN(Cc2cc(Oc3ccc(N4CCN5CCC4C5)nn3)nc(-c3cc(Cl)cc(Cl)c3)c2)CC1 (centres unmarked) [Example 344]	8.4
COC(=O)CCN1CCN(c2ncc(Oc3cc(CN4CCC(CNC(C)=O)CC4)cc(-c4cc(Cl)cc(Cl)c4)n3)cn2)CC1 [Example 297]	9.4
CNCc1cc(Oc2ccc(N3CCC(N)CC3)nc2)nc(-c2cc(C)cc(Cl)c2)c1 [Example 108, hydrochloride]	7.5
O=C(O)CC1CCN(Cc2cc(Oc3cnc(N4CCN(C5CC5)CC4)nc3)nc(-c3cc(Cl)cc(Cl)c3)c2)CC1 [Example 233]	8.2
CNC(=O)OCC1CCN(Cc2cc(Oc3ccc(N4CCN(C[C@@H](C)O)CC4)nc3)nc(-c3cc(Cl)cc(Cl)c3)c2)CC1 [Example 305]	8.7
CNC1CCN(c2ccc(Oc3cc(CNCCOC)cc(-c4cc(Cl)cc(Cl)c4)c3)cn2)CC1 [Example 97]	8.4
CC(=O)NCC1CCN(Cc2cc(Oc3ccc(N4CCN(CCOC(N)=O)CC4)nc3)nc(-c3cc(Cl)cc(Cl)c3)c2)CC1 [Example 31]	9.1
CNCc1cc(Oc2cnc(N3CCN(CCCS(C)(=O)=O)CC3)nc2)nc(-c2cc(Cl)cc(Cl)c2)c1 [Example 37]	8.5
CC(C)N1CCN(c2ncc(Oc3cc(CN4CCC(CC(=O)O)CC4)cc(-c4cc(Cl)cc(Cl)c4)n3)cn2)CC1 [Example 235]	9.2
CC(CC1CCN(Cc2cc(Oc3ccc(N4CCN(C)CC4)nc3)nc(-c3cc(Cl)cc(Cl)c3)c2)CC1)C(=O)O (centres unmarked) [Example 213]	8.9
C[C@@H](CC1CCN(Cc2cc(Oc3cnc(N4CCN(C)CC4)nc3)nc(-c3cc(Cl)cc(Cl)c3)c2)CC1)C(=O)O [Example 134]	9.5
CNC(=O)NCC1CCN(Cc2cc(Oc3cnc(N4CCN(CCCS(C)(=O)=O)CC4)nc3)nc(-c3cc(F)cc(Cl)c3)c2)CC1 [Example 274]	9
CC(=O)NCC1CCN(Cc2cc(Oc3cnc(N4CCN(CCS(C)(=O)=O)CC4)nc3)cc(-c3cc(Cl)cc(Cl)c3)c2)CC1 [Example 167]	8.3

Entry source: patent US11773078B2
